Hi there, I'd appreciate the recorded IC50 for every entry that follows.
Test system: MDA-MB-453
method summary: Inhibition of cell proliferation by payloads in vitro (CCK-8)
Format: cell-based
protocol conditions: Homo sapiens, MDA-MB-453, 144 h, read-out: IC50, nM MDA-MB-453; payloads, proliferation, 6 days, CCK-8
Procedure: The cells were added to a 96-well plate at 1.0×10^3 cells/well and 100 μL/well and incubated in a cell culture incubator at 37° C. and 5% CO2. The test compounds were diluted with a DMEM medium containing 2% DMSO (Sigma-Aldrich, Cat. No. 34869) in a 4-fold gradient to the corresponding concentrations. […] The OD450 optical density value was read on an EnVision™ multi-function microplate reader (PerkinElmer), and the inhibition rates (%) of the compounds were calculated. […]
Numbers only here, please. The scale is nM.

Find the measured IC50 of COc1ncc(-c2ccc3ncc4c(C)nc(C5CC5)n4c3c2)cc1NS(=O)(=O)N1CCNCC1 and report it.
0.24

Find the measured IC50 of COc1ncc(-c2ccc3ncc4c(c3c2)n([C@@H]2C[C@@H]2F)c(=O)n4C)cc1NS(=O)(=O)N1CCNCC1 and report it.
0.24

Find the measured IC50 of COc1ncc(-c2ccc3ncc4nccn4c3c2)cc1NS(=O)(=O)N1CCNCC1 and report it.
6.6

Find the measured IC50 of COc1ncc(-c2ccc3ncc4c(c3c2)n(C2CC2)c(=O)n4CC(F)(F)F)cc1NS(=O)(=O)N1CCNCC1 and report it.
2.3

Find the measured IC50 of COc1ncc(-c2ccc3ncc4c(c3c2)n(CC(F)(F)F)c(=O)n4C)cc1NS(=O)(=O)N1CCNCC1 and report it.
0.22

Find the measured IC50 of COc1ncc(-c2ccc3ncc4cnc(C5CC5)n4c3c2)cc1NS(=O)(=O)N1CCNCC1 and report it.
0.23

Find the measured IC50 of COc1ncc(-c2ccc3ncc4c(c3c2)n(C2CCCC2)c(=O)n4C)cc1NS(=O)(=O)N1CCNCC1 and report it.
0.12

The origin of these recorded values is patent US20260048138A1.
